For each of the compounds below, state its IC50 at 72 h.
test: cytotoxicity of compounds tested alone against drug-resistant cancer cells; format: cell-based; conditions: human, MDA-435/LCC-MDR drug-resistant cancer cells, read-out: cytotoxicity IC50, compound alone

Consider the compound shown here: CC(C)=CCOc1ccc2c(C)cc(=O)oc2c1C(=O)C=Cc1cccnc1 What is its recorded IC50 at 72 h?
> 1 µM

Consider the compound shown here: C=C(C)COc1ccc2c(C)cc(=O)oc2c1C(=O)C=Cc1cccnc1 [VIB 122] What is its recorded IC50 at 72 h?
> 1 µM
